- testDescription: Quantitative High-Throughput drug screen in 47 multiple myeloma cell lines against the NCATS MIPE library collection: OCIMY1_PLB cell viability assay (AID 1918979); also: nearly all actives have a fitted effect of over 35% in size
- statedConditions: OCI-MY1 myeloma viability, CellTiter-Glo ATP, 48 h; series mostly up to 45.8 µM
Records with an inconclusive call do not appear. The source made the active and inactive calls. Calls follow the shape of the dose curve; as a rule, active = well fitted cell-killing curve with a large enough effect; inconclusive = small, poorly fitted or top-dose-only effect, or effect the other way; inactive = no such curve, though single readings can be large or run the other way.
Classes to choose from: active, inactive

COc1cccc2c(NCc3ccccc3)nc(-n3c(N)nc4ccccc43)nc12	active
Cc1c(CN2CCN(S(C)(=O)=O)CC2)sc2c(N3CCOCC3)nc(-c3cnc(N)nc3)nc12	active
CCCCCCCCCC(=O)N[C@@H](Cc1c[nH]c2ccccc12)C(=O)N[C@H](CC(N)=O)C(=O)N[C@@H](CC(=O)O)C(=O)N[C@@H]1C(=O)NCC(=O)N[C@@H](CCCN)C(=O)N[C@@H](CC(=O)O)C(=O)N[C@H](C)C(=O)N[C@@H](CC(=O)O)C(=O)NCC(=O)N[C@H](CO)C(=O)N[C@@H]([C@@H](C)CC(=O)O)C(=O)N[C@@H](CC(=O)c2ccccc2N)C(=O)O[C@@H]1C	inactive
Cc1cn(-c2cc(NC(=O)c3ccc(C)c(Nc4nccc(-c5cccnc5)n4)c3)cc(C(F)(F)F)c2)cn1	active
CCN1CCN(CC(=O)Nc2ccc(-c3cccc4c(=O)cc(N5CCOCC5)oc34)c3sc4ccccc4c23)CC1	active
O=C(C=Cc1c(C(=O)O)[nH]c2cc(Cl)cc(Cl)c12)Nc1ccccc1	inactive

Query: Assay result, entry `C1=CCOCc2cc(ccc2OCCN2CCCC2)Nc2nccc(n2)-c2cccc(c2)OCC1` — outcome?
Reply: active

Query: Assay result, entry `COc1cc2c(Oc3ccc4[nH]c(C)cc4c3F)ncnc2cc1OCCCN1CCCC1` — outcome?
Reply: active

Query: Could you check what this test reported for `CC(C)c1cc(C(=O)N2Cc3ccc(CN4CCN(C)CC4)cc3C2)c(O)cc1O` ?
Reply: active

Query: What outcome does the record of this test show for `CN1CCN(c2cc(C(=O)Nc3ccc4c(c3)-c3c(c(C(N)=O)nn3-c3ccc(F)cc3)CC4)c(Cl)cn2)CC1` ?
Reply: active

Query: Outcome? `Cc1ccc(-c2ncn(-c3ccc(Nc4nccc(-c5cccc(N6CCOCC6)c5)n4)cc3)n2)cn1`
Reply: active

Query: For this compound, state the assay outcome: `CC1(C)CCC(c2ccc(Cl)cc2)=C(CN2CCN(c3ccc(C(=O)NS(=O)(=O)c4ccc(N[C@H](CCN5CCOCC5)CSc5ccccc5)c(S(=O)(=O)C(F)(F)F)c4)cc3)CC2)C1`
Reply: active

Query: Field: outcome | Entry: `CN(C)Cc1c(C(=O)NCCOc2ccc(C(=O)NO)cc2)oc2ccccc12`
Reply: active

Query: Recorded call for `CC[C@H]1CN2CCc3cc(OC)c(OC)cc3[C@H]2C[C@@H]1C[C@@H]1NCCc2cc(OC)c(OC)cc21` ?
Reply: active

Query: Per the assay record, what outcome was assigned to `Cc1nc2cnc3ccc(C#Cc4cccnc4)cc3c2n1-c1ccc(C(C)(C)C#N)cc1` ?
Reply: active

Query: Assay result, entry `CC(C)(C)c1cnc(CSc2cnc(NC(=O)C3CCNCC3)s2)o1` — outcome?
Reply: active
